B1: library; a variant is named by its letters at N, in order (parent)
chain: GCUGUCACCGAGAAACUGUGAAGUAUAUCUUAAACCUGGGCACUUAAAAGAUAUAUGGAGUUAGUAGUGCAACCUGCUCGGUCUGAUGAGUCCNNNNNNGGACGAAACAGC

# Variants of: B1
# protocol-summary: normalized RNA/DNA level with ligand (relative to sTRSVctl = 100) (log10 (% of sTRSVctl)); HEK293T; ligand: cyclic di-GMP (c-di-GMP-II aptamer); ligand concentration (+) RNA-Seq: 1 mM; higher = less ribozyme self-cleavage, higher mRNA level
# experimental-context: reporter: mCherry (pCS4076), ligand present: yes
observation-type: normalized RNA/DNA level with ligand (log10)

| mutation-descriptor | test-result |
| --- | --- |
| UCCUAA | 1.79 |
| CUCUGC | 1.83 |
| AGCGAC | 1.81 |
| UAUGUG | 1.86 |
| GAUUCC | 1.87 |

Data provenance is the supplement of paper PMC6757056.
